Reported log10 of Ki by item:
Target chain: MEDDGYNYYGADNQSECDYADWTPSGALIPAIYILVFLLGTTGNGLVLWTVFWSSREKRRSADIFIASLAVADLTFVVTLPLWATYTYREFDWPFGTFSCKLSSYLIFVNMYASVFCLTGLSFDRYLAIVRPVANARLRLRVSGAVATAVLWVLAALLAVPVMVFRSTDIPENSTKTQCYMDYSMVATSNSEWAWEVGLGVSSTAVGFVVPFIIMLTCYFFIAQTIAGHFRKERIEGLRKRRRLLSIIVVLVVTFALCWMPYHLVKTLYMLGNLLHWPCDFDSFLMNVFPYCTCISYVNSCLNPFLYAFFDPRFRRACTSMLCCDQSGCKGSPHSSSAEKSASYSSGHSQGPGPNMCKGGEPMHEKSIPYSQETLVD
*1 amine or outer side, *2 acyl side, *3 side chain or, on linkers, in order; H or OH if unused. Where a SMILES comes first, the peptide text is derived from it. [ ]: non-standard residue; d: D form. Phe(4-Br) = N[C@@H](Cc1ccc(Br)cc1)C(=O)O; X1 = N=C(N)NCCCN(N[*:1])C(=O)[*:2]; azaLeu = CC(C)CN(N[*:1])C(=O)[*:2]; αMeR = C[C@](N)(CCCNC(=N)N)C(=O)O; NMeL = CN[C@@H](CC(C)C)C(=O)O; pGlu = O=C1CC[C@@H](C(=O)O)N1; αMeL = CC(C)C[C@](C)(N)C(=O)O; Nle = CCCC[C@H](N)C(=O)O; Aib = CC(C)(N)C(=O)O
Please note: log10 values; quantity Ki; unit nM.

compound="CCCC[C@H](NC(=O)[C@@H]1CCCN1C(=O)CNC(=O)[C@H](CCCCN)NC(=O)[C@H](Cc1c[nH]cn1)NC(=O)[C@H](CO)NC(=O)[C@](C)(CC(C)C)NC(=O)[C@H](CCCNC(=N)N)NC(=O)[C@@H]1CCCN1C(=O)[C@H](CCCNC(=N)N)NC(=O)[C@@H]1CCC(=O)N1)C(=O)NC(C)(C)C(=O)N[C@@H](Cc1ccc(Br)cc1)C(=O)O [Peptide 14] ([pGlu]RPR[αMeL]SHKGP[Nle][Aib][Phe(4-Br)]-OH; C-terminus assumed)" measured_property="log10 of Ki" endpoint_result=-0.77

Prompt: For the compound CCCC[C@H](NC(=O)[C@@H]1CCCN1C(=O)CNC(=O)[C@H](CCCCN)NC(=O)[C@H](Cc1c[nH]cn1)NC(=O)[C@H](CO)NC(=O)[C@H](CC(C)C)NC(=O)N(CCCNC(=N)N)NC(=O)[C@@H]1CCCN1C(=O)[C@H](CCCNC(=N)N)NC(=O)[C@@H]1CCC(=O)N1)C(=O)NC(C)(C)C(=O)N[C@@H](Cc1ccc(Br)cc1)C(=O)O [Peptide 16] ([pGlu]RP[X1]LSHKGP[Nle][Aib][Phe(4-Br)]-OH; C-terminus assumed) , what log10 of Ki is on record?
Completion: 0.00

Prompt: For the compound CCCC[C@H](NC(=O)[C@@H]1CCCN1C(=O)CNC(=O)[C@H](CCCCN)NC(=O)[C@H](Cc1c[nH]cn1)NC(=O)[C@H](CO)NC(=O)N(CC(C)C)NC(=O)[C@H](CCCNC(=N)N)NC(=O)[C@@H]1CCCN1C(=O)[C@H](CCCNC(=N)N)NC(=O)[C@@H]1CCC(=O)N1)C(=O)NC(C)(C)C(=O)N[C@@H](Cc1ccc(Br)cc1)C(=O)O [Peptide 18] ([pGlu]RPR[azaLeu]SHKGP[Nle][Aib][Phe(4-Br)]-OH; C-terminus assumed) , what log10 of Ki is on record?
Completion: -0.89

Prompt: For the compound CCCC[C@H](NC(=O)[C@@H]1CCCN1C(=O)CNC(=O)[C@H](CCCCN)NC(=O)[C@H](Cc1c[nH]cn1)NC(=O)[C@H](CO)NC(=O)[C@H](CC(C)C)N(C)C(=O)[C@H](CCCNC(=N)N)NC(=O)[C@@H]1CCCN1C(=O)[C@H](CCCNC(=N)N)NC(=O)[C@@H]1CCC(=O)N1)C(=O)NC(C)(C)C(=O)N[C@@H](Cc1ccc(Br)cc1)C(=O)O [Peptide 10] ([pGlu]RPR[NMeL]SHKGP[Nle][Aib][Phe(4-Br)]-OH; C-terminus assumed) , what log10 of Ki is on record?
Completion: -1.00

Prompt: For the compound CSCC[C@H](NC(=O)[C@@H]1CCCN1C(=O)CNC(=O)[C@H](CCCCN)NC(=O)[C@H](Cc1cnc[nH]1)NC(=O)[C@H](CO)NC(=O)[C@H](CC(C)C)NC(=O)[C@H](CCCNC(=N)N)NC(=O)[C@@H]1CCCN1C(=O)[C@H](CCCNC(=N)N)NC(=O)[C@H](CCC(N)=O)NC(=O)[C@H](CCCNC(=N)N)NC(=O)[C@H](CCCNC(=N)N)NC(=O)[C@H](Cc1ccccc1)NC(=O)[C@@H](N)CCCCN)C(=O)N1CCC[C@H]1C(=O)N[C@@H](Cc1ccccc1)C(=O)O [Peptide 2, reference compound] , what log10 of Ki is on record?
Completion: -1.30

Prompt: For the compound CCCC[C@H](NC(=O)[C@@H]1CCCN1C(=O)CNC(=O)[C@H](CCCCN)NC(=O)[C@H](Cc1c[nH]cn1)NC(=O)[C@H](CO)NC(=O)[C@H](CC(C)C)NC(=O)[C@](C)(CCCNC(=N)N)NC(=O)[C@@H]1CCCN1C(=O)[C@H](CCCNC(=N)N)NC(=O)[C@@H]1CCC(=O)N1)C(=O)NC(C)(C)C(=O)N[C@@H](Cc1ccc(Br)cc1)C(=O)O [Peptide 12] ([pGlu]RP[αMeR]LSHKGP[Nle][Aib][Phe(4-Br)]-OH; C-terminus assumed) , what log10 of Ki is on record?
Completion: -0.25

Prompt: For the compound CCCC[C@H](NC(=O)[C@@H]1CCCN1C(=O)CNC(=O)[C@H](CCCCN)NC(=O)[C@H](Cc1c[nH]cn1)NC(=O)[C@H](CO)NC(=O)[C@@H](CC(C)C)NC(=O)[C@H](CCCNC(=N)N)NC(=O)[C@@H]1CCCN1C(=O)[C@H](CCCNC(=N)N)NC(=O)[C@@H]1CCC(=O)N1)C(=O)NC(C)(C)C(=O)N[C@@H](Cc1ccc(Br)cc1)C(=O)O [Peptide 8] ([pGlu]RPR[dL]SHKGP[Nle][Aib][Phe(4-Br)]-OH; C-terminus assumed) , what log10 of Ki is on record?
Completion: -0.92
